# Tested on: six V600E BRAF melanoma cell lines
# procedure.details: Screening of recombinant RTK ligands for ability to confer resistance to BRAFi (PLX4720) or MEKi (PD184352) (Table 4)
# Type: cell-based, human
# Parameters: scale not given here
# run.parameters: A2058, PD184352 - 1 uM, ligand 25 ng/ml
metric: ability of recombinant RTK ligand to confer resistance

{"molecule": "BDNF (protein, UniProt P23560 19-247, looked up) Neurotrophic factor BDNF …: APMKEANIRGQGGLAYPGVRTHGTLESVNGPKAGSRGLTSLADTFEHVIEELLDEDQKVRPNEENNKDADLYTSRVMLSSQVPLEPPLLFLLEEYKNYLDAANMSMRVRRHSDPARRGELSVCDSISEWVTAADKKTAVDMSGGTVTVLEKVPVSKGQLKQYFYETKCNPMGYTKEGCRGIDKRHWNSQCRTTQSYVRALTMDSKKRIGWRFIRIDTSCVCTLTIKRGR", "experimental.value": 1.03}
{"molecule": "Ephrin-A4 (protein, UniProt P52798 26-170, looked up) Ephrin-A4: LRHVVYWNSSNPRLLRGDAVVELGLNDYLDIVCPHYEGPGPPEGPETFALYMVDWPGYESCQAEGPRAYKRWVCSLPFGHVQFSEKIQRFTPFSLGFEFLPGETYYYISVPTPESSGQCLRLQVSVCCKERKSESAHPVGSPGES", "experimental.value": 0.99}
